Where these numbers come from: patent US20230272055A1

- targetUnderTest: T1, Human Type 1 mutCALR (human)
- T1 chain: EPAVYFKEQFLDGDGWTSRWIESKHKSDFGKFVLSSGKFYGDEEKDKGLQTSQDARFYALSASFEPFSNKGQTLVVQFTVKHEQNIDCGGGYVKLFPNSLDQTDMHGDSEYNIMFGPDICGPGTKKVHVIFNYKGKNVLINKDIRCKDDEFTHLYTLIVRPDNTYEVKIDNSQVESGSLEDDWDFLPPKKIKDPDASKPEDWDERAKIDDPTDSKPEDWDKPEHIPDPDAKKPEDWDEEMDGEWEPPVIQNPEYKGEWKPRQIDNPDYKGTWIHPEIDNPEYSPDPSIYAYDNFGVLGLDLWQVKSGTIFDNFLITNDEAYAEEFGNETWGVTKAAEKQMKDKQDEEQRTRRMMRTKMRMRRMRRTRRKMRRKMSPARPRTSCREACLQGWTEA
- testName: cell-based or functional assay
valueKind: IC50 of inhibition of cell proliferation (Ba/F3 cells with MPL and mutCALR Type 1)
Answer format: number, then unit.

Problem: I would be grateful if you could share the reported IC50 of inhibition of cell proliferation (Ba/F3 cells with MPL and mutCALR Type 1) for anti-mutCALR antibody clone 36 (antibody, human IgG1, lambda, V domains shown) VH: QVQLVQSGAEVKKPGATVKISCKVSGYSFTDYFIHWVQQAPGKGLAWVGLVDPEDGETIYAEKFQGRVTITADTSTDTAYMELSSLRSEDTAVYYCATPGGILTDPDAFDIWGQGTMVTVSS VL: QSALTQPRSVSGSPGQSVTISCAGTGSDVGGYNYVSWYQHHPGKAPKLMIYDVNKRPSGVPDRFSGSKSGNTASLTISGLQAEDEADYYCSSYTSSSTFYVFGTGTKVTVLG .
Result: 0.0905 µg/mL
